Entries annotated with measured Kd
- Test System: T1, scHLA-B27-mmH (engineered HLA-B*27 ectodomain in-line fusion protein) (human (HLA-B*2705, beta-2 …))
- T1 construct: also called soluble HLA-B*27 fusion protein
- Method: SPR (Biacore), mAb captured, 25 C, HBST pH 7.4
Experimental Endpoint: Kd

- H4H2499N (antibody, V domains shown) VH: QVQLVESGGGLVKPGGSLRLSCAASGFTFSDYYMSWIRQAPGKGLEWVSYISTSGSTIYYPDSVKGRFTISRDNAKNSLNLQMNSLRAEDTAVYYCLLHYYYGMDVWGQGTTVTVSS VL: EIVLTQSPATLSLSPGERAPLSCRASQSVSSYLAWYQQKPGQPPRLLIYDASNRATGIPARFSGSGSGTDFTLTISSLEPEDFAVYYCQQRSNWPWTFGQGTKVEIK: 21.3 nM
- H4H2526P (antibody, V domains shown) VH: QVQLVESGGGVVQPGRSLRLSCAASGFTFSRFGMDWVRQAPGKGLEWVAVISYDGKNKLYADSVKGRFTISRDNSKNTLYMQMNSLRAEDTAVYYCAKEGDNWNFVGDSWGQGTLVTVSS VL: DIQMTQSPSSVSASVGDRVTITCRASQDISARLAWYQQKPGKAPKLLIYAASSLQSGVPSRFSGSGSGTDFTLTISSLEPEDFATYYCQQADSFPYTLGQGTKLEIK: 2.08 nM
- H4H2534S (antibody, V domains shown) VH: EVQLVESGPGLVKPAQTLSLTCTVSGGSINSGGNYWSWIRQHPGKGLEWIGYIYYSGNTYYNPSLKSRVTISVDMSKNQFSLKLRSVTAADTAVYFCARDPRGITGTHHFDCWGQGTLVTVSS VL: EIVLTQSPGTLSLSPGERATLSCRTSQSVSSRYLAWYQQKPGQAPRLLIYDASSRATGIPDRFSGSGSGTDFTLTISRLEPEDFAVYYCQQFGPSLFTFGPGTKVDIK: 5.18 nM

Values were extracted from patent US20130259876A1.
